Data provenance is PubChem BioAssay.

Assay: budding yeast growth modifiers under rapamycin – strain BY4716, OD600, 96 h, primary screen (AID 1091); further: test concentration not given here
Settings: S. cerevisiae BY4716 + rapamycin, higher = more signal, called active from +8 up or from −8 down
Lab note: compare z-score against 1. Equal or greater, write condition met. Smaller, write condition not met.

[
  {
    "Compound": "COC(=O)C1(Cc2ccccc2)C=C2C(=C(C)C(=O)C2C)CN1 (stereo not drawn)",
    "Category Label": "condition not met"
  },
  {
    "Compound": "CC(C)NC(=O)[C@@H]1c2ccccc2C(=O)N(Cc2ccccc2C(F)(F)F)[C@H]1c1ccc(CO)cc1",
    "Category Label": "condition not met"
  },
  {
    "Compound": "O=C1N(Cc2ccccc2)c2ccccc2C[C@@]12COC(c1ccc(OCCCO)cc1)=N2",
    "Category Label": "condition met"
  },
  {
    "Compound": "COCCn1c(C(=O)N(C)C)cc2c1C[C@H]1CN(C(=O)c3ccccc3)[C@@](Cc3ccc(OC)cc3)(C(=O)OC)[C@@H]21",
    "Category Label": "condition met"
  },
  {
    "Compound": "COC(=O)[C@@]1(Cc2ccc(OC)cc2)[C@H]2c3cc(C(=O)N4CCCC4)n(Cc4ccc(C(F)(F)F)nc4)c3C[C@H]2CN1C(=O)c1ccccc1",
    "Category Label": "condition not met"
  },
  {
    "Compound": "O=C1C[C@@](C(=O)O)(c2ccc([N+](=O)[O-])cc2)[C@@H](c2ccc(CO)cc2)N1C1CCCCC1",
    "Category Label": "condition met"
  },
  {
    "Compound": "CCOC(=O)C1=C[C@@H](C(C)(C)C)N(S(=O)(=O)c2ccc(C)cc2)[C@H]1c1ccc(C#N)cc1",
    "Category Label": "condition met"
  }
]

Proceed to the following item.
Has CN(C)C(=O)[C@]1(Cc2ccccc2)N=C(c2ccc(OCCCO)cc2)O[C@@H]1c1ccccc1CN=[N+]=[N-] a recorded z-score greater than or equal to 1?
condition not met

---

Test: budding yeast growth modifiers under rapamycin – strain BY4716, OD600, 96 h, primary screen (AID 1091); further: test concentration not given here
Conditions: S. cerevisiae BY4716 + rapamycin, higher = more signal, called active from +8 up or from −8 down
Calls of active or inactive are those of the source.
Observation Type: z-score

Examples with their reported z-score follow.
[
  {
    "Compound": "CC1CC/C=C\\[C@H]2OC34C=CCN(C(C)(C)C)C(=O)[C@H]3N(CCCO)C(=O)[C@@H]4C2C(=O)O1 (some centres not stated)",
    "z-score": "1.14 (inactive)"
  },
  {
    "Compound": "COC(=O)[C@@]1(Cc2ccccc2)[C@H]2c3cc(C(=O)N(C)C)n(Cc4ccc(S(C)(=O)=O)cc4)c3C[C@H]2CN1C(=O)c1ccccc1",
    "z-score": "0.654 (inactive)"
  },
  {
    "Compound": "COc1ccc(C(=O)Nc2ccc(CN3C(=O)[C@@]4(O[C@@H](CCn5cc(CCO)nn5)[C@H]([Si](C)(C)c5ccc(OC)cc5)[C@H]4C)c4ccccc43)cc2)cc1",
    "z-score": "0.377 (inactive)"
  },
  {
    "Compound": "O=C1O[C@H](Cc2ccccc2)[C@@H]2[C@H]3C=CCCC=C3CN2[C@H]1Cc1ccc(O)cc1",
    "z-score": "-0.621 (inactive)"
  },
  {
    "Compound": "CC(C)NC(=O)[C@@H]1c2ccccc2C(=O)N(Cc2ccc(OC(F)(F)F)cc2)[C@H]1c1ccc(CO)cc1",
    "z-score": "-1.51 (inactive)"
  }
]

Give one value of z-score per listed compound.
1. CN(C)CCCNC(=O)[C@@H]1c2ccccc2C(=O)N(Cc2ccccc2C(F)(F)F)[C@H]1c1ccc(CO)cc1
2. CCCCCC1=C2CNC(Cc3ccccc3)(C(=O)OC)C=C2C(C)C1=O (configuration not stated)

1: -0.461 (inactive); 2: 1.2 (inactive)
